Cited source for all entries: patent US20240415914A1

- experiment: Stability of cannabinoid and Vitamin E components of Beverage 1 (AB White) stored at 8° C. and 21-25° C., LCMSMS over 570 days
- Type: physicochemical
- runParameters: beverage stored at 8° C., day 150
Give measured Stability in AB White, 8° C. (content by LCMSMS) for each item. Keep answers brief.
Give bare numbers, in µg/mL.

{"molecule": "C=C(C)[C@@H]1CCC(C)=C[C@H]1c1c(O)cc(CCC)cc1O [CBDV, cannabidivarin]", "valueMeasured": 0.150}
{"molecule": "CCCc1cc(O)c2c(c1)OC(C)(C)[C@@H]1CCC(C)=C[C@@H]21 [THCV, delta-9-tetrahydrocannabivarin]", "valueMeasured": 3.55}
{"molecule": "CCCCCc1cc(O)c2c(c1)OC(C)(C)[C@@H]1CCC(C)=C[C@@H]21 [D9 THC, delta-9-tetrahydrocannabinol, reference compound]", "valueMeasured": 12.07}

// each listed molecule needs a value for Stability in AB White, 8° C. (content by LCMSMS)
1. C=C(C)[C@@H]1CCC(C)=C[C@H]1c1c(O)cc(CCCCC)cc1O [CBD, cannabidiol, reference compound]
2. C=C(C)[C@@H]1CCC(C)=C[C@H]1c1c(O)cc(CCCCC)c(C(=O)O)c1O [CBDA, cannabidiolic acid]
3. CCCCCc1cc(O)c2c(c1)OC(C)(C)c1ccc(C)cc1-2 [CBN, cannabinol]

Output:
1: 28.59; 2: 1.71; 3: 2.69

So for CCCCCc1cc2c(c(O)c1C(=O)O)[C@@H]1C=C(C)CC[C@H]1C(C)(C)O2 [D9 THCA, delta-9-tetrahydrocannabinolic acid] , the logged Stability in AB White, 8° C. (content by LCMSMS) turned out to be 0.952

* * *

- Type: physicochemical
- runParameters: stored at room temperature (21-25° C.), day 11
- Protocol: At each time period, 0.05 g of powder was dissolved in 10 ml-15 of ethanol, diluted to fall within the analytical range, and injected into the LCMSMS for analysis.
metricName: Stability in Powder Concentrate (content by LCMSMS) (mg/g powder)
Answers are plain numbers, in mg/g powder.

Guide cases for Stability in Powder Concentrate (content by LCMSMS), answers given:
{"molecule": "C=C(C)[C@@H]1CCC(C)=C[C@H]1c1c(O)cc(CCCCC)c(C(=O)O)c1O", "valueMeasured": 0.415}
{"molecule": "CC(=O)Oc1c(C)c(C)c2c(c1C)CCC(C)(CCC[C@H](C)CCC[C@H](C)CCCC(C)C)O2 (stereo partly drawn) [α-Tocopheryl acetate]", "valueMeasured": 2.20}
{"molecule": "CCCCCc1cc(O)c2c(c1)OC1(C)CCC3C1C2C3(C)C (centres unmarked)", "valueMeasured": 0.052}
{"molecule": "C=C(C)[C@@H]1CCC(C)=C[C@H]1c1c(O)cc(CCCCC)cc1O [CBD, cannabidiol, reference compound]", "valueMeasured": 6.00}

As a next step, examine the molecule that follows.
So for Cc1c(C)c2c(c(C)c1O)CC[C@@](C)(CCC[C@H](C)CCC[C@H](C)CCCC(C)C)O2 , the logged Stability in Powder Concentrate (content by LCMSMS) turned out to be 5.04

* * *

Give measured Stability in AB White, 8° C. (content by LCMSMS) for each item. Keep answers brief.
- experiment: Stability of cannabinoid and Vitamin E components of Beverage 1 (AB White) stored at 8° C. and 21-25° C., LCMSMS over 570 days
- Format: physicochemical
- runParameters: beverage stored at 8° C., day 390
One number for each entry, in µg/mL.

{"compound": "CCCc1cc(O)c2c(c1)OC(C)(C)[C@@H]1CCC(C)=C[C@@H]21 [THCV, delta-9-tetrahydrocannabivarin]", "valueMeasured": 3.47}
{"compound": "CCCCCc1cc(O)c2c(c1)OC(C)(C)c1ccc(C)cc1-2", "valueMeasured": 2.67}

// each listed compound needs a value for Stability in AB White, 8° C. (content by LCMSMS)
1. C=C(C)[C@@H]1CCC(C)=C[C@H]1c1c(O)cc(CCCCC)c(C(=O)O)c1O
2. CCCCCc1cc(O)c2c(c1)OC1(C)CCC3C1C2C3(C)C (stereo not drawn)
3. CCCCCc1cc(O)c2c(c1)OC(C)(CCC=C(C)C)C=C2 (stereo not drawn)
4. CCCCCc1cc2c(c(O)c1C(=O)O)[C@@H]1C=C(C)CC[C@H]1C(C)(C)O2 [D9 THCA, delta-9-tetrahydrocannabinolic acid]

Output:
1.70
0.535
0.310
0.923

* * *

- Assay type: physicochemical
- runParameters: stored at room temperature (21-25° C.), day 23
Give measured Stability in Powder Concentrate (content by LCMSMS) for each item. Keep answers brief.
Give bare numbers, in mg/g powder.

Guide cases for Stability in Powder Concentrate (content by LCMSMS), answers given:
{"molecule": "C=C(C)[C@@H]1CCC(C)=C[C@H]1c1c(O)cc(CCCCC)cc1O [CBD, cannabidiol, reference compound]", "valueMeasured": 6.10}
{"molecule": "C=C(C)[C@@H]1CCC(C)=C[C@H]1c1c(O)cc(CCCCC)c(C(=O)O)c1O", "valueMeasured": 0.396}

// each listed molecule needs a value for Stability in Powder Concentrate (content by LCMSMS)
1. Cc1c(C)c2c(c(C)c1OC(=O)CCC(=O)O)CC[C@@](C)(CCC[C@H](C)CCC[C@H](C)CCCC(C)C)O2 [α-Tocopheryl succinate]
2. C=C(C)[C@@H]1CCC(C)=C[C@H]1c1c(O)cc(CCC)cc1O
3. CCCCCc1cc(O)c2c(c1)OC(C)(C)[C@@H]1CCC(C)=C[C@@H]21 [D9 THC, delta-9-tetrahydrocannabinol, reference compound]
4. CCCCCc1cc(O)c2c(c1)OC(C)(CCC=C(C)C)C=C2 (stereo not drawn)

Output:
1.80
0.050
2.65
0.069

* * *

- Format: physicochemical
- runParameters: stored at room temperature (21-25° C.), day 2
metricName: Stability in Powder Concentrate (content by LCMSMS)
Answer format: number, then unit.

Guide cases for Stability in Powder Concentrate (content by LCMSMS), answers given:
{"compound": "CC(=O)Oc1c(C)c(C)c2c(c1C)CCC(C)(CCC[C@H](C)CCC[C@H](C)CCCC(C)C)O2 (stereo partly drawn) [α-Tocopheryl acetate]", "valueMeasured": "2.11 mg/g powder"}
{"compound": "CCCc1cc(O)c2c(c1)OC(C)(C)[C@@H]1CCC(C)=C[C@@H]21 [THCV, delta-9-tetrahydrocannabivarin]", "valueMeasured": "0.699 mg/g powder"}
{"compound": "Cc1c(C)c2c(c(C)c1O)CC[C@@](C)(CCC[C@H](C)CCC[C@H](C)CCCC(C)C)O2 [α-Tocopherol]", "valueMeasured": "4.79 mg/g powder"}
{"compound": "CCCCCc1cc2c(c(O)c1C(=O)O)[C@@H]1C=C(C)CC[C@H]1C(C)(C)O2 [D9 THCA, delta-9-tetrahydrocannabinolic acid]", "valueMeasured": "0.147 mg/g powder"}

As a next step, examine the compound that follows.
So for C=C(C)[C@@H]1CCC(C)=C[C@H]1c1c(O)cc(CCCCC)c(C(=O)O)c1O [CBDA, cannabidiolic acid] , the logged Stability in Powder Concentrate (content by LCMSMS) turned out to be 0.407 mg/g powder

* * *

- experiment: Stability of cannabinoid and Vitamin E components of Beverage 2 (AB Red) stored at 8° C. and 21-25° C., LCMSMS over 570 days
- runParameters: 21-25° C., 480 days
metricName: Stability of Cannabinoids in AB Red (µg/mL)
Numbers only, in µg/mL.

Guide cases for Stability of Cannabinoids in AB Red, answers given:
{"compound": "CCCc1cc(O)c2c(c1)OC(C)(C)[C@@H]1CCC(C)=C[C@@H]21 [THCV, delta-9-tetrahydrocannabivarin]", "unitString": "µg/mL", "Stability of Cannabinoids in AB Red": 3.04}
{"compound": "CCCCCc1cc(O)c2c(c1)OC(C)(C)c1ccc(C)cc1-2", "unitString": "µg/mL", "Stability of Cannabinoids in AB Red": 2.58}
{"compound": "CCCCCc1cc2c(c(O)c1C(=O)O)[C@@H]1C=C(C)CC[C@H]1C(C)(C)O2 [D9 THCA, delta-9-tetrahydrocannabinolic acid]", "unitString": "µg/mL", "Stability of Cannabinoids in AB Red": 1.29}

As a next step, examine the compound that follows.
So for CCCCCc1cc(O)c2c(c1)OC1(C)CCC3C1C2C3(C)C (stereo not shown) , the logged Stability of Cannabinoids in AB Red turned out to be 0.48

* * *

Give measured Stability in Powder Concentrate (content by LCMSMS) for each item. Keep answers brief.
- Format: physicochemical
- runParameters: stored at room temperature (21-25° C.), day 18
Numbers only, in mg/g powder.

Guide cases for Stability in Powder Concentrate (content by LCMSMS), answers given:
{"compound": "CCCCCc1cc(O)c2c(c1)OC1(C)CCC3C1C2C3(C)C (stereo not shown) [CBL, cannabicyclol]", "valueMeasured": 0.052}
{"compound": "CCCCCc1cc(O)c2c(c1)OC(C)(CCC=C(C)C)C=C2 (stereo not shown) [CBC, cannabichromene]", "valueMeasured": 0.072}
{"compound": "CCCCCc1cc2c(c(O)c1C(=O)O)[C@@H]1C=C(C)CC[C@H]1C(C)(C)O2 [D9 THCA, delta-9-tetrahydrocannabinolic acid]", "valueMeasured": 0.149}
{"compound": "CCCCCc1cc(O)c(C/C=C(\\C)CCC=C(C)C)c(O)c1 [CBG, cannabigerol]", "valueMeasured": 1.13}

// each listed compound needs a value for Stability in Powder Concentrate (content by LCMSMS)
1. C=C(C)[C@@H]1CCC(C)=C[C@H]1c1c(O)cc(CCCCC)cc1O [CBD, cannabidiol, reference compound]
2. C=C(C)[C@@H]1CCC(C)=C[C@H]1c1c(O)cc(CCCCC)c(C(=O)O)c1O [CBDA, cannabidiolic acid]
3. Cc1c(C)c2c(c(C)c1O)CC[C@@](C)(CCC[C@H](C)CCC[C@H](C)CCCC(C)C)O2 [α-Tocopherol]

Output:
1: 6.01; 2: 0.418; 3: 4.77
